tested.system: CYP3A4 (Homo sapiens)
Construct: Pooled HLMs were obtained from BD Bioscience (Woburn, USA); tissue BD Bioscience; host or cells: pooled human liver microsomes
Sequence (P08684 whole entry): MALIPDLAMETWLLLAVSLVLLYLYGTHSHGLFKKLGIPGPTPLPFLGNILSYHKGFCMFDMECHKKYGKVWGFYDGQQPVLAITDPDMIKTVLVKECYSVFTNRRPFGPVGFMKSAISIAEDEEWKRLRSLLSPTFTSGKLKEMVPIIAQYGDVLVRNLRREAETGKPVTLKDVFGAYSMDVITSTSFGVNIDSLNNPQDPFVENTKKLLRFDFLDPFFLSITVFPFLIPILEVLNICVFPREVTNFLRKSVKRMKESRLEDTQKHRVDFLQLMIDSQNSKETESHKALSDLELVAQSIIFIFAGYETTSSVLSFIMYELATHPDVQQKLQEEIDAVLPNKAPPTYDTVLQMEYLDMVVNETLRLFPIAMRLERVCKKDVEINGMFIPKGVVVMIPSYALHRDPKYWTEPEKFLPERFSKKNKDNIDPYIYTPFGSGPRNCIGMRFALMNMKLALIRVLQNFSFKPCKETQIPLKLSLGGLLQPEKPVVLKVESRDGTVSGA
assay.protocol: Time-dependent inhibition of CYP3A4 in pooled HLMs
Type: in vitro ADME
applied.conditions: human, pooled human liver microsomes; 0, 2, 5, 10, 20, 50 μM obtusofolin; 0-30 min; substrate approx. 4-fold Km
metric.name: kinact (s⁻¹)
Field format: number, assumed s⁻¹, no unit text.

Give the reported kinact for COc1c(O)c(C)cc2c1C(=O)c1c(O)cccc1C2=O [obtusofolin] (system: CYP3A4 (Homo sapiens)).
0.000858

====

tested.system: UniProt:P08684
metric.name: pIC50
// pIC50 here means minus log10 of the molar concentration (mol/L)

Please look up its pIC50: COc1c(O)c(C)cc2c1C(=O)c1c(O)cccc1C2=O [obtusofolin]
4.77
